Origin of the recorded values: paper PMC3128679

Protein target, amino acids: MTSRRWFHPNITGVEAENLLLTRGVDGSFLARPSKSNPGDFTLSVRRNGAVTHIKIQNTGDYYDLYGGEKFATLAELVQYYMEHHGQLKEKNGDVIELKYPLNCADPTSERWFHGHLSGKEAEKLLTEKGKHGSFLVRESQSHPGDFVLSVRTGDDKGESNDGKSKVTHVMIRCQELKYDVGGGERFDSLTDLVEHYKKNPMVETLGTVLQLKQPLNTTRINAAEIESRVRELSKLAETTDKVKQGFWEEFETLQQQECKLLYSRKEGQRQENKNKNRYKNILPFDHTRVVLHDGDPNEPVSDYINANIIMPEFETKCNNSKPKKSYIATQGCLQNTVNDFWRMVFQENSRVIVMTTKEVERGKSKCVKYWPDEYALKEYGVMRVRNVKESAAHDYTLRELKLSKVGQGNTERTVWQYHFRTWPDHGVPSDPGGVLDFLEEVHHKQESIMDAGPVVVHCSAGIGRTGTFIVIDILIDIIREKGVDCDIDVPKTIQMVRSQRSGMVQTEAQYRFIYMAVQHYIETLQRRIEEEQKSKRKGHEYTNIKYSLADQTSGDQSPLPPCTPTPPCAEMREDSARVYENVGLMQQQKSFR
Below, each entry is listed alongside its reported IC50.

{"columns": ["input.smiles", "test.result"],
 "data": [
  ["CC1=NN(c2ccc(S(=O)(=O)O)cc2C)C(=O)C1", "> 1 mM"]
]}

Now examine the next entry.
IN: Form field: reported IC50 of `O=C(O)C1=NN(c2ccccc2)C(=O)C1`
OUT: > 1 mM
